# credit: patent US20210221899A1

Molecular target: T1, human NGF (human, UniProt P01138 122-241)
T1 construct: also called human Nerve Growth Factor; hN
T1 chain: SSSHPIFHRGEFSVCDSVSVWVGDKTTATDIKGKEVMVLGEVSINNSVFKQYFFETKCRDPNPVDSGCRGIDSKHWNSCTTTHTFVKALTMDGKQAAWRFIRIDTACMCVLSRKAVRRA
Assay: SPR (Biacore T200), 100 nM mAb on NGF chip, similarity to parent mAb
Measurement kind: Percent Similarity Score (KD on hN) (%)

Binder	Value
can9L12VL_G30A (antibody, V domains shown) VH: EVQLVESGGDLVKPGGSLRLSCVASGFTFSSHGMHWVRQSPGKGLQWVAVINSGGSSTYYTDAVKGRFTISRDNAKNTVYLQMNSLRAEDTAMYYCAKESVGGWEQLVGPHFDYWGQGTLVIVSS VL: QSVLTQPTSVSGSLGQRVTISCSGSTNNIAILGASWYQLFPGKAPKLLVYGNGNRPSGVPDRFSGADSGDSVTLTITGLQAEDEADYYCQSFDTTLGAHVFGGGTHLTVL	16.2
can9L12VL_T95A (antibody, V domains shown) VH: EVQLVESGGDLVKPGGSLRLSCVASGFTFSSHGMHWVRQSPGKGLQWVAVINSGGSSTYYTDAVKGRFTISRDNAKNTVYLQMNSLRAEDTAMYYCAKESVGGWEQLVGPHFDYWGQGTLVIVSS VL: QSVLTQPTSVSGSLGQRVTISCSGSTNNIGILGASWYQLFPGKAPKLLVYGNGNRPSGVPDRFSGADSGDSVTLTITGLQAEDEADYYCQSFDTALGAHVFGGGTHLTVL	100
